assay: Solubility in buffered cyclodextrin solutions (excess method of Higuchi and Connors); format: physicochemical; conditions: buffered HP-β-CD solutions, pH = 7.0, 25 °C
Correlation parameter b (Eq. 2, Cs = a + b·CCD) by entry:

// query Need Correlation parameter b (Eq. 2, Cs = a + b·CCD), item O=c1c2ncn(COCCO)c2nc2[nH]c(-c3ccccc3)cn12
// result 2.60 × 10^−2

// query What value of measured Correlation parameter b (Eq. 2, Cs = a + b·CCD) is listed for O=c1c2ncn(COCCO)c2nc2[nH]c(-c3ccc4ccccc4c3)cn12 ?
// result 0.94 × 10^−2

// query Need Correlation parameter b (Eq. 2, Cs = a + b·CCD) of COc1ccc(-c2cn3c(=O)c4ncn(COCCO)c4nc3[nH]2)cc1 , thanks.
// result 1.06 × 10^−2

// query Please report the recorded Correlation parameter b (Eq. 2, Cs = a + b·CCD) for O=c1c2ncn(COCCO)c2nc2[nH]c(-c3ccc(-c4ccccc4)cc3)cn12 .
// result 2.84 × 10^−2

// query State the recorded Correlation parameter b (Eq. 2, Cs = a + b·CCD) for this entry: O=c1c2ncn(COCCO)c2nc2[nH]ccn12
// result 2.05 × 10^−2

--- query ---
// query Value lookup for Correlation parameter b (Eq. 2, Cs = a + b·CCD); key = Cc1cn2c(=O)c3nc(Br)n(COCCO)c3nc2[nH]1
// result 2.57 × 10^−2

====

test: Solubility in water or 1-octanol (saturated solutions, UV-Vis); format: physicochemical; details: water saturated with 1-octanol, 25 °C, water, thermodynamic from solid; read-out: Solubility in water saturated with 1-octanol, C woc
endpoint.name: solubility (µM)

1: Nc1nc(O)c2ncn(COC(CO)CO)c2n1 [Compound 3, reference compound]
2: O=c1c2ncn(COCCO)c2nc2[nH]c(-c3ccc(-c4ccccc4)cc3)cn12 [Compound 9]
3: COc1ccc(-c2cn3c(=O)c4ncn(COCCO)c4nc3[nH]2)cc1 [Compound 11]
// query Rank the items above by solubility, largest value first. Return value: ordered labels per request.
// result 1, 2, 3
(1: 11000 µM, 2: 583 µM, 3: 135 µM)

====

test: Solubility in buffered cyclodextrin solutions (excess method of Higuchi and Connors); assay type: physicochemical; set-up: unit not given here; conditions: pH = 7, 37 °C
endpoint.name: Stability constant K s of HP-β-CD complex

Some compounds with recorded Stability constant K s of HP-β-CD complex:
// query Name the recorded Stability constant K s of HP-β-CD complex for O=c1c2ncn(COCCO)c2nc2[nH]c(-c3ccc(-c4ccccc4)cc3)cn12 [Compound 9] .
// result 68 (±4)

// query Given the compound O=c1c2ncn(COCCO)c2nc2[nH]ccn12 [Compound 4] , what is its reported Stability constant K s of HP-β-CD complex?
// result 6.0 (±1) dm·mol^−1

// query Fill blank: measured Stability constant K s of HP-β-CD complex of the compound O=c1c2ncn(COCCO)c2nc2[nH]c(-c3ccc4ccccc4c3)cn12 [Compound 12] is ____.
// result 305 (±9)

// query Data request, read-out Stability constant K s of HP-β-CD complex, for COc1ccc(-c2cn3c(=O)c4ncn(COCCO)c4nc3[nH]2)cc1 [Compound 11]
// result 96 (±4)

// query Could you share which Stability constant K s of HP-β-CD complex value was measured for O=c1c2ncn(COCCO)c2nc2[nH]c(-c3ccccc3)cn12 [Compound 8] ?
// result 105 (±6) dm·mol^−1

Kindly consider the entry below.
// query Bench note: what Stability constant K s of HP-β-CD complex did Cc1cn2c(=O)c3nc(Br)n(COCCO)c3nc2[nH]1 [Compound 6] show?
// result 17 (±1) dm·mol^−1

====

assay: Solubility in buffered cyclodextrin solutions (excess method of Higuchi and Connors); format: physicochemical; details: phosphate buffer saturated with 1-octanol, aqueous buffer, thermodynamic from solid; Buffer saturated with 1-octanol, pH = 5.5, 37 °C; read-out: Solubility, C 6-Ph-O-Me-TACV
endpoint.name: solubility at 7 days (µM)
Write the value in µM as a bare number.

// query Request the reported solubility at 7 days associated with COc1ccc(-c2cn3c(=O)c4ncn(COCCO)c4nc3[nH]2)cc1 [Compound 11]
// result 127

====

assay: Solubility in buffered cyclodextrin solutions (excess method of Higuchi and Connors); format: physicochemical; details: organic solvent or mixture, thermodynamic from solid; 1-Octanol saturated with buffer, pH = 7.0, 25 °C; read-out: Solubility, C 6-Ph-O-Me-TACV
endpoint.name: solubility at 7 days (µM)
Report the value in µM with no unit label.

// query Given the compound COc1ccc(-c2cn3c(=O)c4ncn(COCCO)c4nc3[nH]2)cc1 , what is its reported solubility at 7 days?
// result 485

====

experiment: Solubility in buffered cyclodextrin solutions (excess method of Higuchi and Connors); type: physicochemical; parameters: unit not given here; details: pH = 5.5, 37 °C
endpoint.name: Stability constant K s of HP-β-CD complex

// query Requested read-out: Stability constant K s of HP-β-CD complex. Entry: O=c1c2ncn(COCCO)c2nc2[nH]c(-c3ccccc3)cn12
// result 113 (±10)

Further cases:
// query Find the recorded Stability constant K s of HP-β-CD complex belonging to O=c1c2ncn(COCCO)c2nc2[nH]c(-c3ccc4ccccc4c3)cn12 and report it.
// result 279 (±9)

// query Given COc1ccc(-c2cn3c(=O)c4ncn(COCCO)c4nc3[nH]2)cc1 , state its recorded Stability constant K s of HP-β-CD complex.
// result 144 (±5)

// query Which value of Stability constant K s of HP-β-CD complex has been reported for Cc1cn2c(=O)c3nc(Br)n(COCCO)c3nc2[nH]1 in the records?
// result 26 (±2) dm·mol^−1

// query Look at this compound and give its reported Stability constant K s of HP-β-CD complex. O=c1c2ncn(COCCO)c2nc2[nH]ccn12
// result 6.0 (±1) dm·mol^−1

// query Given the entry O=c1c2ncn(COCCO)c2nc2[nH]c(-c3ccc(-c4ccccc4)cc3)cn12 , report its measured Stability constant K s of HP-β-CD complex.
// result 61 (±5)

====

Here, each record is paired with measured Correlation parameter a (Eq. 2, Cs = a + b·CCD) data.
assay: Solubility in buffered cyclodextrin solutions (excess method of Higuchi and Connors); assay type: physicochemical; details: buffered HP-β-CD solutions, pH = 5.5, 25 °C

Consider the reported Correlation parameter a (Eq. 2, Cs = a + b·CCD) for these compounds:
// query Fill in: Correlation parameter a (Eq. 2, Cs = a + b·CCD) of COc1ccc(-c2cn3c(=O)c4ncn(COCCO)c4nc3[nH]2)cc1 [Compound 11] is ___
// result 5.23 × 10^−5

// query Fill in the blank: the reported Correlation parameter a (Eq. 2, Cs = a + b·CCD) of O=c1c2ncn(COCCO)c2nc2[nH]c(-c3ccc(-c4ccccc4)cc3)cn12 [Compound 9] is ____.
// result 2.18 × 10^−4

// query GET /values?readout=Correlation parameter a (Eq. 2, Cs = a + b·CCD)&item= O=c1c2ncn(COCCO)c2nc2[nH]c(-c3ccccc3)cn12 [Compound 8]
// result 1.86 × 10^−4

// query Entry Cc1cn2c(=O)c3nc(Br)n(COCCO)c3nc2[nH]1 [Compound 6] : reported Correlation parameter a (Eq. 2, Cs = a + b·CCD) = ?
// result 1.18 × 10^−3

// query Entry O=c1c2ncn(COCCO)c2nc2[nH]c(-c3ccc4ccccc4c3)cn12 [Compound 12] has what Correlation parameter a (Eq. 2, Cs = a + b·CCD)?
// result 2.99 × 10^−5

--- query ---
// query Endpoint output: Correlation parameter a (Eq. 2, Cs = a + b·CCD) of O=c1c2ncn(COCCO)c2nc2[nH]ccn12 [Compound 4] . Value?
// result 2.64 × 10^−3

====

Assay: Solubility in water or 1-octanol (saturated solutions, UV-Vis)
Type: physicochemical
Details: water saturated with 1-octanol, 25 °C, water, thermodynamic from solid; read-out: Solubility in water saturated with 1-octanol, C woc
Method: The sample of substance examined (10 mg or 80 mg for 6-Me-TACV) was placed in a glass ampoule and double-distilled, deionized water (Millipore, Elix 5 purifier), or pure anhydrous 1-octanol (Sigma 99 %) was added. […] After the experiment was completed, the sample was centrifuged at 40,000 rpm for 40 min at 25 ± 0.1 °C, the supernatant liquid was collected, diluted, and its concentration determined with a UV–Vis (Varian Carry IE) spectrophotometer. […]
endpoint.name: solubility (µM)

// query solubility value for entry Cc1cn2c(=O)c3ncn(COCCO)c3nc2[nH]1
// result 13100

// query Bench note: what solubility did CC(C)(C)c1cn2c(=O)c3ncn(COCCO)c3nc2[nH]1 show?
// result 3780

// query What value of solubility has been reported for the following compound? Cc1cn2c(=O)c3nc(Br)n(COCCO)c3nc2[nH]1
// result 1050

// query Need solubility of Nc1nc2c(ncn2COCCO)c(=O)[nH]1 [Compound 1, 9-[(2-hydroxyethoxy)methyl] guanine, reference compound] , thanks.
// result 7440

// query Fill in the blank: the reported solubility of O=c1c2ncn(COCCO)c2nc2[nH]ccn12 is ____.
// result 2720

I: O=c1c2ncn(COCCO)c2nc2[nH]c(-c3ccc(Br)cc3)cn12
II: O=c1c2ncn(COCCO)c2nc2[nH]c(-c3ccc4ccccc4c3)cn12
// query Rank I against II by their solubility values and give the higher one. Mark your selection by writing its label.
// result I

I: O=c1c2ncn(COCCO)c2nc2[nH]c(-c3ccccc3)cn12
II: Nc1nc2c(nc(Br)n2COCCO)c(=O)[nH]1
// query Which record would sort first by descending solubility, I or II ? Your answer should be the label attached to the chosen record.
// result II
